Tested System: htau40 (Homo sapiens, UniProt P10636)
Sequence (P10636 1-441 isoform P10636-8): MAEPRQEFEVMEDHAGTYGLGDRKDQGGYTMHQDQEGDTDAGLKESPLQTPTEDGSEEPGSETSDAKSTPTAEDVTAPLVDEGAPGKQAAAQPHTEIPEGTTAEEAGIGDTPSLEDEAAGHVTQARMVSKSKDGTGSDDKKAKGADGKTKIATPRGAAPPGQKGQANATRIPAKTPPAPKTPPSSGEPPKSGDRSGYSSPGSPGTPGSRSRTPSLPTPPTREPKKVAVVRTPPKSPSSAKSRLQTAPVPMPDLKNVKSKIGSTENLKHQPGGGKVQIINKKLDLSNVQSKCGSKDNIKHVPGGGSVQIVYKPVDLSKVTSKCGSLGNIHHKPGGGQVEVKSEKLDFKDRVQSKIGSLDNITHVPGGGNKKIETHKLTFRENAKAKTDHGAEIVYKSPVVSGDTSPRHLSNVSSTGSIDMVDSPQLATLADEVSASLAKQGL
Assay Name: Biacore X100 SPR of anti-tau mAbs on immobilised htau40
Type: binding
Experimental Setup: newly converted mAbs, Table 25 (Example 28), hT40
Below, each of the molecules is paired with its reported kd value.
Answer with a number only, understood to be in s⁻¹.

Molecule	Output Unit	Measured Value
MD9/MoD9: anti-tau clone, SEQ ID NO: 373 (protein, MD9 amino acid sequence) scFv: QVRLQESGPSLVKSSQTLSLTCTVSGFSLTRESIAWVRQAPGKVPEWLGGVGIDGTSYYSPALKSRLSITRDTSKSQASLSLSSVATEDTAMYYCARNYIDFEYWGPGLLVTVSSEGKSSGASGESKVDDQAVLTQLSSVSGSLGQRISITCSGSSSNVGIYDVSWFQQLPGSGLRTVIYGTNNRPSGVPDRFSGSRSGNTATLTISSLQSEDEAIYYCAAGDSSTIAVFGSGTRLTVLG	s⁻¹	0.001462

Note: attention shifts to another entry.
Ask: Fill blank: measured kd of the molecule 3bD11 (protein) scFv: RVRLQGSGPSLVKPSQTLSLTCTVSGFSFDSYYVGWVRQAPGKALEWLGNIYSTGRAFYNPALKSRLSITRDTSKSQVSLSVSSVTIEDTALYYCVRGSYYHGGGNGMVDFFDYWSPGLLVTVSSEGKSSGASGESKVDDQVVRTQPSSVSGSLGQRVSITCSGSSSNVGYGNYVGWFQQVPGSAPKLLIYAATSRASGVPDRFSGSRSGNTATLTIDSLQAEDEADYYCSSYQRGNTGVFGSGTRLTVLG is ____.
Result: 0.003979
